- tested target: T1, human MSLN-FL-his protein (human, UniProt Q13421 296-580)
- T1 construct: also called hMSLN-FL-his; human MSLN full-length protein; not shown: His tag
- T1 sequence (Q13421 other isoform, or with tags, fused parts or gaps): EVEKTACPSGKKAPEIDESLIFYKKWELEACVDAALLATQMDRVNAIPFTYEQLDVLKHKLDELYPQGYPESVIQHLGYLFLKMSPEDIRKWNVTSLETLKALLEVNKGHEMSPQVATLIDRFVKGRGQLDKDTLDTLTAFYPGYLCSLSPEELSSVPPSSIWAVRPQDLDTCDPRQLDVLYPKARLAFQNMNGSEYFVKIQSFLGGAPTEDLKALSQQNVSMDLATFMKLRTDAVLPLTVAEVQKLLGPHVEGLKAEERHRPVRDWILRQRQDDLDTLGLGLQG
- method notes: ELISA, coated antigen; no antibody (blank, column 'none')
readout: OD450
Lab note: write the figure by itself, no unit.

[
  {
    "binder": "S009-F1.2.12 human-murine chimeric antibody (antibody, human IgG1, kappa, V domains shown, Chimeric IgG1/kappa) VH: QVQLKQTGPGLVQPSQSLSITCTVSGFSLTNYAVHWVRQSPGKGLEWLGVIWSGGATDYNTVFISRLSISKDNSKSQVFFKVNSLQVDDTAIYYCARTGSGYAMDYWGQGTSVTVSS VL: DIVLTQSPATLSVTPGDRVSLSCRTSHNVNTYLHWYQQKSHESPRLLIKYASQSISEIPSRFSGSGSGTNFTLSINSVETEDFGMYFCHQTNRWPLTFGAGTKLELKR",
    "OD450": 0.06
  },
  {
    "binder": "S009-F1.35.24 human-murine chimeric antibody (antibody, human IgG1, kappa, V domains shown, Chimeric IgG1/kappa) VH: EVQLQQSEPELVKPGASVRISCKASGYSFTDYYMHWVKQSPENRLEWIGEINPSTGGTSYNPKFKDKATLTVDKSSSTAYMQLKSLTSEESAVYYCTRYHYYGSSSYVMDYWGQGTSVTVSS VL: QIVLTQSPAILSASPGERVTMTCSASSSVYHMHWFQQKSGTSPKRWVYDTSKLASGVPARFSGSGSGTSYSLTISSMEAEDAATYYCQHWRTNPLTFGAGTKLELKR",
    "OD450": 0.06
  }
]

# ---- query binder ----
Query string: Which measured OD450 value corresponds to S009-F1.25.10 human-murine chimeric antibody (antibody, human IgG1, kappa, V domains shown, Chimeric IgG1/kappa) VH: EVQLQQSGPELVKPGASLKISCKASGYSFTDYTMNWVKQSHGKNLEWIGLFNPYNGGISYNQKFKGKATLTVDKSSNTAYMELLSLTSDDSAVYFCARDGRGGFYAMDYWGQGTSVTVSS VL: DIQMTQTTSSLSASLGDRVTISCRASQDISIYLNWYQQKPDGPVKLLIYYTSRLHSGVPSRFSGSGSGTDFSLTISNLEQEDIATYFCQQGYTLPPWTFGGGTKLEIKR ?
Result string: 0.06
